// values below are reported apparent Kd
System: MS2 coat protein
Test: apparent Kd, MS2 coat protein; higher = weaker binding; RNA-MaP array; FMN 200 µM where present
Conditions: ligand present: flavin mononucleotide; designed as: OFF switch for flavin mononucleotide

In the examples that follow, each entry is paired with its recorded apparent Kd.
GCAGGUUAAGUCAGGAUAUACCUAUGGAUACAUAGGUAGAAGGGACAUGAGGAUCACCCAUGUGCCUCGCCUGC 69.3 nM
CUAAUGUGAGGAUAUGGUGUUGAUCGCAGGAAGGAGAUUCUCCAGAAGGCACAUGAGGAUCACCCAUGUAGUGA 51.1 nM

Any idea what its apparent Kd is? The sequence is "AGCCUACAUGAGGAUCACCCAUGUCAGGAUAUCUCGCAACGUGUCAAGUUCACGUCGCAGAGAAGGGACUCGGG"
54 nM

Any idea what its apparent Kd is? The sequence is "AAAAAUCGAGGAUAUACAUGAGGAUCACCCAUGUGGGACCAAGAAAACACAAAAGAAAGUAGAAGGCGAUAAAA"
113 nM

Any idea what its apparent Kd is? The sequence is "ACAUGUUUUACAGGAUAUGUUUUACAAUAAACAUUCAGUUAUUACGAUUAAACAGAAGGGUAUACAUGAGGAUCACCCAUGUAA"
15 nM

----------
System: MS2 coat protein
Assay: apparent Kd, MS2 coat protein; higher = weaker binding; RNA-MaP array
Conditions: ligand present: flavin mononucleotide; designed as: OFF switch for flavin mononucleotide
PROPERTY LABEL: apparent Kd
Kindly report the value followed by its unit.

GAGACAGGGCAGAAGGUUCUAAACGGCUAAAUGAAAGGAUAUGCAAACAUUGACAUGAGGAUCACCCAUGUGUUAAAAGCUACG 9.88 nM
AAAGGUCAGGAGAAGGUGCCUCUAUUACGUCGGCAAGGAUAUCCACAGCGGGCGAUUAUGCGUACAUGAGGAUCACCCAUGUUA 43.5 nM
ACGUAGUGCCGAGGAUAUGUAACAUGAGGAUCACCCAUGUUCUCUAACAGGUCGAUUUUAAGCACACAGAAGGCGGGUGUUGAU 11.8 nM
UCGAACUAACAAGGAUAUACGCGGGUCGAAACGGUAGAAGGUGUCAACGGUAUCUCACAUGAGGAUCACCCAUGUCGGCAGGGA 103 nM

Any idea what its apparent Kd is? The sequence is "GAAUGGAAACUAGGAUAUCGGCAGGAGCGGGAGCGAGAAGGAGUUUACUCGGUAUACAUGAGGAUCACCCAUGUGGGUGUGCUG"
252 nM

Any idea what its apparent Kd is? The sequence is "UGCCAACAUGAGGAUCACCCAUGUCAGGAUAUCCGGGAGCACUUCAGUAGAAUCCGCUGGAGAAGGGACAUAGG"
21.7 nM

----------
System: MS2 coat protein
Assay: apparent Kd, MS2 coat protein; higher = weaker binding; RNA-MaP array
Conditions: designed as: ON switch for flavin mononucleotide; no ligand
PROPERTY LABEL: apparent Kd (nM)
Value expressed in nM; do not type the unit.

GUAACGGGAAGCAGUGGCUUGACAUGAGGAUCACCCAUGUACAGAAGGGACGAUUACGUAAUGCGUCAGGAUAUGUGCCGUAGA 48
UAAUCAGUGAUAGGAUAUCGUAGCUCAGAUAGGCGAGAAGGAUCUGACUCCACAUGAGGAUCACCCAUGUUGUACAUACAGGAC 19.5
CGCGACUUCAGAGGAUAUGUGCGUGUCACAUGAGGAUCACCCAUGUAAGGUUACCUACGACCGGGACAGAAGGCUGACCCAAAA 61

Any idea what its apparent Kd is? The sequence is "ACAUACUUGGGAGGAUAUAUGUUCGUACGCUCGAUAGAAGGCCCAGAAGUAUAAGACAUGAGGAUCACCCAUGUGGCAAGCGUU"
11.4

Data credit: the EternaBench riboswitch data
